The measurements presented in this section are drawn from ChEMBL document CHEMBL1137348.

Target: Gonadotropin-releasing hormone receptor (Homo sapiens, UniProt P30968, H306E)
Sequence (P30968 whole entry H306E): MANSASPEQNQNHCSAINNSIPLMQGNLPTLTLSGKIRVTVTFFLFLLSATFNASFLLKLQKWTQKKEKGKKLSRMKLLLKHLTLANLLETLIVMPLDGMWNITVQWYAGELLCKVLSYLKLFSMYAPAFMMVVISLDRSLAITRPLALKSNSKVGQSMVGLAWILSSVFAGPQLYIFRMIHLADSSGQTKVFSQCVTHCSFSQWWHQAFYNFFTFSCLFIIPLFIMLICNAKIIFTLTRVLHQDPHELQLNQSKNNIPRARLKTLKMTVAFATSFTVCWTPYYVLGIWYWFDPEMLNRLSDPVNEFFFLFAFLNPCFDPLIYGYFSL
Test: Displacement of [His5, D-Tyr6]GnRH from GnRHR H306E mutant expressed in COS7 cells
PROPERTY LABEL: IC50 (nM)
# unit: nM | format: bare number

CN(Cc1ccccc1)Cc1c(-c2ccc(N)cc2)sc2c1c(=O)n(-c1ccccc1)c(=O)n2Cc1c(F)cccc1F	500
CN(Cc1ccccc1)Cc1c(-c2ccc(NC(=O)NCc3ccccc3)cc2)sc2c1c(=O)n(-c1ccccc1)c(=O)n2Cc1c(F)cccc1F	4000
CC(=O)Nc1ccc(-c2sc3c(c2CN(C)Cc2ccccc2)c(=O)n(-c2ccccc2)c(=O)n3Cc2c(F)cccc2F)cc1	1600
CN(CCc1ccccn1)Cc1c(-c2ccc([N+](=O)[O-])cc2)sc2c1c(=O)n(-c1ccccc1)c(=O)n2Cc1c(F)cccc1F	400
CN(Cc1ccccc1)Cc1c(-c2ccc(NC3=NCCN3)cc2)sc2c1c(=O)n(-c1ccccc1)c(=O)n2Cc1c(F)cccc1F	800
CN(CCc1ccccc1)Cc1c(-c2ccc([N+](=O)[O-])cc2)sc2c1c(=O)n(-c1ccccc1)c(=O)n2Cc1c(F)cccc1F	7100

Moving on to another compound below.
Find the recorded IC50 belonging to `CN(Cc1ccccc1)Cc1c(-c2ccc(NC(=O)c3ccccc3)cc2)sc2c1c(=O)n(-c1ccccc1)c(=O)n2Cc1c(F)cccc1F` and report it.
800

###

Target: Gonadotropin-releasing hormone receptor (Homo sapiens, UniProt P30968, H306A)
Sequence (P30968 whole entry H306A): as the sequence (P30968 whole entry H306E) above, with E306A counted along it
Test: Displacement of [His5, D-Tyr6]GnRH from GnRHR H306A mutant expressed in COS7 cells
Type: cell-based, COS-7
PROPERTY LABEL: IC50
Show the value, then the unit it is measured in.

Consider the worked cases shown below.
CN(Cc1ccccc1)Cc1c(-c2ccc([N+](=O)[O-])cc2)sc2c1c(=O)n(-c1ccccc1)c(=O)n2Cc1c(F)cccc1F	3 µM
CN(CCc1ccccc1)Cc1c(-c2ccc([N+](=O)[O-])cc2)sc2c1c(=O)n(-c1ccccc1)c(=O)n2Cc1c(F)cccc1F	3.3 µM
CC(=O)Nc1ccc(-c2sc3c(c2CN(C)Cc2ccccc2)c(=O)n(-c2ccccc2)c(=O)n3Cc2c(F)cccc2F)cc1	1.7 µM

Next compound, IC50 to be filled in.
Requested field: IC50. Item: `CN(Cc1ccccc1)Cc1c(-c2ccc(NC3=NCCN3)cc2)sc2c1c(=O)n(-c1ccccc1)c(=O)n2Cc1c(F)cccc1F`
4.4 µM

###

Biological target: Gonadotropin-releasing hormone receptor (Homo sapiens, UniProt P30968, Y290L)
Experiment: Displacement of [His5, D-Tyr6]GnRH from GnRHR Y290L mutant expressed in COS7 cells
PROPERTY LABEL: pIC50
Expect pIC50 as a plain number equal to -log10 of the molar concentration.

CN(Cc1ccccc1)Cc1c(-c2ccc([N+](=O)[O-])cc2)sc2c1c(=O)n(-c1ccccc1)c(=O)n2Cc1c(F)cccc1F	5.96

Could you share which pIC50 value was measured for `CN(Cc1ccccc1)Cc1c(-c2ccc(N)cc2)sc2c1c(=O)n(-c1ccccc1)c(=O)n2Cc1c(F)cccc1F` ?
6.41

// lookup pIC50 for `CN(Cc1ccccc1)Cc1c(-c2ccc(NC(=O)NCc3ccccc3)cc2)sc2c1c(=O)n(-c1ccccc1)c(=O)n2Cc1c(F)cccc1F`
7.15

Which pIC50 is listed for `CN(Cc1ccccc1)Cc1c(-c2ccc(NC3=NCCN3)cc2)sc2c1c(=O)n(-c1ccccc1)c(=O)n2Cc1c(F)cccc1F` ?
6.46

Which value of pIC50 has been reported for `CN(Cc1ccccc1)Cc1c(-c2ccc(NC(=O)c3ccccc3)cc2)sc2c1c(=O)n(-c1ccccc1)c(=O)n2Cc1c(F)cccc1F` in the records?
7.70

GET /values?readout=pIC50&item= `CN(CCc1ccccc1)Cc1c(-c2ccc([N+](=O)[O-])cc2)sc2c1c(=O)n(-c1ccccc1)c(=O)n2Cc1c(F)cccc1F`
5.72

Look up pIC50: `CC(=O)Nc1ccc(-c2sc3c(c2CN(C)Cc2ccccc2)c(=O)n(-c2ccccc2)c(=O)n3Cc2c(F)cccc2F)cc1`
7.28

Suppose we examine the compound `CN(CCc1ccccn1)Cc1c(-c2ccc([N+](=O)[O-])cc2)sc2c1c(=O)n(-c1ccccc1)c(=O)n2Cc1c(F)cccc1F` ; what pIC50 value has been reported?
6.05
